Biological target: Sterol O-acyltransferase 2 (Homo sapiens)
Assay: Inhibition of human ACAT2 expressed in insect Hi5 cells at 50 uM
Conditions: BTI-TN-5B1-4
The entries below are paired with their reported inhibition.
Report only the number, with the unit % understood.

Use the examples below as a reference point.
[[record]]
item_smiles = "CCCCCCCC(=O)Nc1cccc(-c2ccccc2)c1"
unit_text = "%"
value_observed = -4

[[record]]
item_smiles = "CCCCCCCCC(=O)Nc1ccc(-c2ccccc2)cc1"
unit_text = "%"
value_observed = 20

[[record]]
item_smiles = "CCCCCCCCCNc1ccc(-c2ccccc2)cc1"
unit_text = "%"
value_observed = 18


Ask | State its inhibition: CCCCCCCCCNc1ccccc1-c1ccccc1
Reply | -1

Ask | State its inhibition: CCCCCCCCNc1ccccc1-c1ccccc1
Reply | -4

Ask | State its inhibition: CCCCCCCCC(=O)Nc1cccc(-c2ccccc2)c1
Reply | -6

Ask | State its inhibition: CCCCCCCCCNc1cccc(-c2ccccc2)c1
Reply | -8
